Target: T1, PRLR-expressing cells (T47D) (Homo sapiens, UniProt P16471)
T1 construct: a native PRLR expressing cell line (T47D); endogenous in cells; host or cells: T47D
T1 sequence (P16471 25-622): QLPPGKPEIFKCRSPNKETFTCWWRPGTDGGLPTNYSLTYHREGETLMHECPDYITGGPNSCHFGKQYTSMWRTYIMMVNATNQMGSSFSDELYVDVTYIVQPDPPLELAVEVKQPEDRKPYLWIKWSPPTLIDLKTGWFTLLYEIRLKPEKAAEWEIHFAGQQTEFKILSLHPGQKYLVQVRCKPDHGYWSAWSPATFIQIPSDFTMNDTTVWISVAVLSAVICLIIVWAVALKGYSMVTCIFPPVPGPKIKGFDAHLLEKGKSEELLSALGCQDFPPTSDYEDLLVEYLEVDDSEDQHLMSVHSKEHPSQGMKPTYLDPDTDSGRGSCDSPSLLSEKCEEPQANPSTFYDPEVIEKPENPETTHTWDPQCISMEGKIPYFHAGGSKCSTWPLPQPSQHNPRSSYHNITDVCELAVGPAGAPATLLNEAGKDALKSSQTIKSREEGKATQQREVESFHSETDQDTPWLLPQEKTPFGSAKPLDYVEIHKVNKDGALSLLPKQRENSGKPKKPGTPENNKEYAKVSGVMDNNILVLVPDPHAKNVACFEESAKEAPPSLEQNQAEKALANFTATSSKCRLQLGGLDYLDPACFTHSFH
Assay: Antibody binding and internalization by PRLR-expressing cells (imaging)
Assay type: cell-based
Conditions: [mAb] (0.67 nM), alexa488 intensity in intracellular vesicles, 1 h at 37° C.
Method: In this Example, the internalization of anti-PRLR antibodies by PRLR-expressing cells (T47D) was assessed. Briefly, 20,000 T47D cells were seeded in collagen coated 96 well plates. […] Cells were then incubated with alexa488 conjugated anti-hFc Fab secondary antibodies for 30 minutes on ice followed by two additional PBS washes. […] (Internalization) were determined via Columbus image analysis software (PerkinElmer).
// values below are reported % Internalization relative to Control I

{"Molecule": "H1H6762P: anti-PRLR antibody, human IgG1 Fc; HCVR/LCVR SEQ ID NOs 2/10 (antibody, V domains shown, human IgG1 Fc) VH: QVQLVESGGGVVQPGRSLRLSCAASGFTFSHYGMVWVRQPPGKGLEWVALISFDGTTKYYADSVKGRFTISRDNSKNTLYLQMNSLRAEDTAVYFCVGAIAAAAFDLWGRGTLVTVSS VL: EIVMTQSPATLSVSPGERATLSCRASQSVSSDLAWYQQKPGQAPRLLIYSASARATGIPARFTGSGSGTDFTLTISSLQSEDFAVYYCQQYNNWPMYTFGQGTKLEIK", "% Internalization relative to Control I [%]": 186.3}
{"Molecule": "H1H6797P: anti-PRLR antibody, human IgG1 Fc; HCVR/LCVR SEQ ID NOs 178/186 (antibody, V domains shown, human IgG1 Fc) VH: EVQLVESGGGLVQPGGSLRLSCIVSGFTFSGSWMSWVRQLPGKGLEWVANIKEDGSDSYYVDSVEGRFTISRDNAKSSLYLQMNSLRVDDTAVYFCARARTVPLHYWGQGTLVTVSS VL: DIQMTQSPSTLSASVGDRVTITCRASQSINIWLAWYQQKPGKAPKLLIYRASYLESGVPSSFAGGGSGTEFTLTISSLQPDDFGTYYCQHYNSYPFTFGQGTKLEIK", "% Internalization relative to Control I [%]": 145.2}
{"Molecule": "H1H6792P: anti-PRLR antibody, human IgG1 Fc; HCVR/LCVR SEQ ID NOs 130/138 (antibody, V domains shown, human IgG1 Fc) VH: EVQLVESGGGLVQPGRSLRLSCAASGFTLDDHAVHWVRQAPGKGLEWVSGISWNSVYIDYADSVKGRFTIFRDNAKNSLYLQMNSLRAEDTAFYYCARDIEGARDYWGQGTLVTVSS VL: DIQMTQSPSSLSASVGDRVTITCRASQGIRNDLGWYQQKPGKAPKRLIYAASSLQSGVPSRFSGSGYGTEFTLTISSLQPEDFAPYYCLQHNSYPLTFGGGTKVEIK", "% Internalization relative to Control I [%]": 155.9}
{"Molecule": "H1H6781P: anti-PRLR antibody, human IgG1 Fc; HCVR/LCVR SEQ ID NOs 50/58 (antibody, V domains shown, human IgG1 Fc) VH: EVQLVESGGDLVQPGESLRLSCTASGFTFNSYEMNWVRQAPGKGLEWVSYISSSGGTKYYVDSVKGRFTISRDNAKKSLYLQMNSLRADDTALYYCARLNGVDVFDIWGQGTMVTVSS VL: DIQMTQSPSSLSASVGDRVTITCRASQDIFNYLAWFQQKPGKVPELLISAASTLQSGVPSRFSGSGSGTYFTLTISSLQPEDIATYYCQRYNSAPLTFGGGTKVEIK", "% Internalization relative to Control I [%]": 165.1}
